# TARGET_OR_TEST_SYSTEM: T1, recombinant hIL-18Rα extracellular domain (human, UniProt Q13478 22-329, biotin label (selection) or fluorescent probe (single-clone FACS), sites not given)
# T1 construct: extracellular domain; also called hIL-18Rα ECD; hIL-18Rα-ECD
# T1 sequence (looked up): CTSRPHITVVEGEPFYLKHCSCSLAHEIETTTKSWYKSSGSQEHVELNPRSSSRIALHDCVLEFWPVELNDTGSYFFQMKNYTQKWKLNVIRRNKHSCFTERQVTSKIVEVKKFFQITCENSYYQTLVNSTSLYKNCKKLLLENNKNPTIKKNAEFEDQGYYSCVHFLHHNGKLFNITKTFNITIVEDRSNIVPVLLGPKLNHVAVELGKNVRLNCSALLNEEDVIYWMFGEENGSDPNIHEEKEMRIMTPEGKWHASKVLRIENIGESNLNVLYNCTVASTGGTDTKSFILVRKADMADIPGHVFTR
# TEST_DETAILS: single-clone FACS, yeast display, 10 nM labelled hIL-18Rα ECD
// reported % of fluorescence positive cells for each item listed

BINDER | % of fluorescence positive cells
SEQ ID NO 63 (ligand) YFPKLQSKLSVIRNLNDQVLFIDQGNRPLFEDMTDSDCRDNAPRTIFIISMYKLSTPRGMAVTISVKCEKISTLSCENKIISFKEMNPPDAIKDTKSDIIFFQRSVPGHDNKMQFESSSYEGYFLACEKERDLFKLILKKEDELGDRSIMFTVQNED | 72.6%
SEQ ID NO 102 (ligand) YFPKLRSKLSVIRNLNDQVLFIDQGNRPLFEDMTDSDCRDNAPRTIFIISMYKFSNFRGMAVTISVKCEKISTLSCENKIISFKEMNPPDAIKDTKSDIIFFQSSVPGHDNKMQFESSSYEGYFLACEKERDLFKLILKKEDELGDRSIMFTVQNED | 1.64%
IL-18 variant polypeptide M8 (ligand) YFPKLRSKLSVIRNLNDQVLFIDQGNRPLFEDMTDSDCRDNAPRTIFIISMYKWSPARGMAVTISVKCEKISTLSCENKIISFKEMNPPDAIKDTKSDIIFFQLSVPGHDNKMQFESSSYEGYFLACEKERDLFKLILKKEDELGDRSIMFTVQNED | 73.4%
